Provide the reported inhibition at 10 µM of each item.
# assay-system: hFASN enzyme (full length) (Homo sapiens, UniProt P49327)
# Construct: 10 μL hFASN enzyme (full length, 300 ng, purified in house); made in house
# measurement-protocol: Fatty Acid Synthase (FASN) Inhibition Scintillation Proximity Assay
# Assay type: biochemical
# condition-context: read-out: FASN % Effect @1E−05M
One number for each entry, in %.

Use the examples below as a reference point.
>>> quantitative_readout("Cc1ccc(C(=O)N2CCC(c3ccc(-c4cn(C)nc4C)cc3)CC2)cc1NC(=O)c1ccc(NC(C)C)nc1 [Compound 245]")
108
>>> quantitative_readout("CC(C)Nc1ccc(C(=O)Nc2cc(C(=O)N3CCC(c4ccc(-c5ccc6cnccc6c5)cc4)CC3)ccc2Cl)cn1 [Compound 67]")
92
>>> quantitative_readout("Cc1ccc(C(=O)N2CCC(c3ccc(-n4ccnc4)cc3)CC2)cc1NC(=O)c1ccc(NC(C)C)nc1 [Compound #15]")
109
>>> quantitative_readout("CSc1ccc(C(=O)Nc2cc(C(=O)N3CCC(c4ccc(-c5cnn(C)c5)cc4)CC3)ccc2C)cc1 [Compound 126]")
110

Give measured inhibition at 10 µM for every item shown.
1. Cc1ccc(C(=O)N2CCC(c3ccc(-c4ccoc4)cc3)CC2)cc1NC(=O)c1ccc(NC(C)C)nc1 [Compound 235]
2. Cc1ccc(C(=O)N2CCC(c3ccc(-c4ccccc4)cc3)CC2)cc1NC(=O)c1ccc(NC(C)C)nc1 [Compound 225]
3. CCCCCN1CC(C(=O)Nc2cc(C(=O)N3CCC(c4ccc(-c5cnn(C)c5)cc4)CC3)ccc2C)C1 [Compound 214]

Data returned:
112
79
107

* * *

# assay-system: FASN Keto-reductase Domain (Homo sapiens, UniProt P49327)
# Construct: 10 μL hFASN enzyme (full length, 300 ng, purified in house) and 360 μM NADPH; made in house
# Sequence (P49327 whole entry, the tested form may be a part): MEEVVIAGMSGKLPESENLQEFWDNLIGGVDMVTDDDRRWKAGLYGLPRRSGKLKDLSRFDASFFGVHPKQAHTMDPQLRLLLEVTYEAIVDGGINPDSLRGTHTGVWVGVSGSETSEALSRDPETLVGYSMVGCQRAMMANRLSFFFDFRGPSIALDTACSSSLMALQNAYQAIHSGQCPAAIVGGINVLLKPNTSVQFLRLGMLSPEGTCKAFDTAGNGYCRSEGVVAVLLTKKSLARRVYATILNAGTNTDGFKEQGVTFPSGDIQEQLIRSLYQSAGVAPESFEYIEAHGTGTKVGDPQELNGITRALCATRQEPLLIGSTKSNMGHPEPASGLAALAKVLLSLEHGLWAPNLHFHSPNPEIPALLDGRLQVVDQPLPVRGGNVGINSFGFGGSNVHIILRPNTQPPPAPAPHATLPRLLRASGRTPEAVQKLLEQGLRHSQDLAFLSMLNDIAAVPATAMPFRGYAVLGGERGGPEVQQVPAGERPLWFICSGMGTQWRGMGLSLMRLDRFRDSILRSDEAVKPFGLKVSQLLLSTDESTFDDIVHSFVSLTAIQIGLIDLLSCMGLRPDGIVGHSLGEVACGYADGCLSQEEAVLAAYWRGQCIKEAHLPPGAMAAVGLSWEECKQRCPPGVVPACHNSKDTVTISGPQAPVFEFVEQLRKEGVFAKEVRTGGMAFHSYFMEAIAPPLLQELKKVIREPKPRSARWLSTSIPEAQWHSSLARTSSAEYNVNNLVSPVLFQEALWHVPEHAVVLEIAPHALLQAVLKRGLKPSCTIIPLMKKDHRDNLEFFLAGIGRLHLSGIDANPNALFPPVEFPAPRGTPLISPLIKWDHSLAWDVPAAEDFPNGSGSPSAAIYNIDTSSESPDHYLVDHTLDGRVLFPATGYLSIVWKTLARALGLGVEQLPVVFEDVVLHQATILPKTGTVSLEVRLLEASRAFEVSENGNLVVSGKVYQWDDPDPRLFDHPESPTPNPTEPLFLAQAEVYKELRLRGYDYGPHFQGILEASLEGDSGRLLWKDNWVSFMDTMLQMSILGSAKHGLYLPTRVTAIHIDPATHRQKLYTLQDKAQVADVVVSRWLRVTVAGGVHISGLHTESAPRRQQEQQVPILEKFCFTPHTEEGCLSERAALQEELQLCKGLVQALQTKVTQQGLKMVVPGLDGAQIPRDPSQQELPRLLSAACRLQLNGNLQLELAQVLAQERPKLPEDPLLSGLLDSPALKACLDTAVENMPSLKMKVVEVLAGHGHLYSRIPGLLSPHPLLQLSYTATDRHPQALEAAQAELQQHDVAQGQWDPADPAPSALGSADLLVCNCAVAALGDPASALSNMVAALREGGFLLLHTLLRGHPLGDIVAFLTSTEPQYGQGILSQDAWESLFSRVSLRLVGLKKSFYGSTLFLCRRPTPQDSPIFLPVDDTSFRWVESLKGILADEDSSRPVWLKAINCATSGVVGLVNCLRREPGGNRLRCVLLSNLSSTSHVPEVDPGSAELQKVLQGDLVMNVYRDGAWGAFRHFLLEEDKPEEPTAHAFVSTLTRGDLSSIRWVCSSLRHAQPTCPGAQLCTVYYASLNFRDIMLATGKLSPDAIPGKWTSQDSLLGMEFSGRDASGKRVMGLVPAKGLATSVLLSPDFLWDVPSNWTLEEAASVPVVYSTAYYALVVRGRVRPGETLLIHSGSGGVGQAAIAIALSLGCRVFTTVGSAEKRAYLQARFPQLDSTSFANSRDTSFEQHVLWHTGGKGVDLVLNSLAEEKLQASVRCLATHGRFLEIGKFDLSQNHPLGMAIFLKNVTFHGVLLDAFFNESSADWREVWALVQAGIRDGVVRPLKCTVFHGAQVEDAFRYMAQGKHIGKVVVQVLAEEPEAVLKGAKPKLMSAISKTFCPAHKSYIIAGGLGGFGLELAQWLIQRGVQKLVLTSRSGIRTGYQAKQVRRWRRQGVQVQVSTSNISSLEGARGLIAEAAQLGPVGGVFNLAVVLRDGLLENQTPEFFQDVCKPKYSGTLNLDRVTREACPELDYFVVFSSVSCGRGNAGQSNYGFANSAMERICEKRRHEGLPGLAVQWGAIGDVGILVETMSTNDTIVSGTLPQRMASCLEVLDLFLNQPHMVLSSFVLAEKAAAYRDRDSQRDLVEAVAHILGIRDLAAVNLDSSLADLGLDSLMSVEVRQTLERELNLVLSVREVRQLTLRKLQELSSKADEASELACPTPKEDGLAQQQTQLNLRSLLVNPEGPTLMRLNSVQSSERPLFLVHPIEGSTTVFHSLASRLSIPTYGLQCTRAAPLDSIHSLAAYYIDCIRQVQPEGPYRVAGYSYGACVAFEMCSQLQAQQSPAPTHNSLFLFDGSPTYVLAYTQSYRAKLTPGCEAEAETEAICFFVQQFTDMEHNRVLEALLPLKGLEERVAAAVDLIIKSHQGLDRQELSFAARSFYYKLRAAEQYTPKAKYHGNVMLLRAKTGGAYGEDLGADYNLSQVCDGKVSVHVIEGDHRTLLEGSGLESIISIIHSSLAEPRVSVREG
# measurement-protocol: Fatty Acid Synthase Keto-Reductase Domain (FASN KR) Inhibition
# Assay type: biochemical
# condition-context: mean where tested more than once; read-out: FASN K-R Domain pIC50 (converted)
Provide the reported IC50 of each item.
I'd appreciate it if you included the unit after the number.

Use the examples below as a reference point.
>>> result("Cc1ccc(C(=O)N2CCC(c3ccc(-c4cnn(C)c4)cc3)CC2)cc1NC(=O)c1ccccc1Cl")
"155 nM"
>>> result("Cc1ccc(C(=O)N2CCC(c3ccc(-c4cnn(C)c4)cc3)CC2)cc1NC(=O)c1ccncc1F")
"38.9 nM"
>>> result("Cc1ccc(C(=O)N2CC(c3ccc(-c4cccnc4N)cc3)C2)cc1NC(=O)c1ccc(Cl)nc1")
"355 nM"

Pending compound:
Data request: Please list IC50 recorded for the compound "Cc1ccc(C(=O)N2CC(c3ccc(-c4cnn(C)c4)cc3)C2)cc1NC(=O)c1ccc(N2CCOCC2)nc1"
Data returned: 31.6 nM

* * *

# assay-system: hFASN enzyme (full length) (Homo sapiens, UniProt P49327)
# Construct: 10 μL hFASN enzyme (full length, 300 ng, purified in house); made in house
# measurement-protocol: Fatty Acid Synthase (FASN) Inhibition Scintillation Proximity Assay
# Assay type: biochemical
# condition-context: read-out: FASN % Effect @1E−05M
Provide the reported inhibition at 10 µM of each item.
Answers are plain numbers, in %.

>>> quantitative_readout("Cc1ccc(C(=O)N2CCC(c3ccc(-c4cnn(C)c4)cc3)CC2)cc1NC(=O)c1nc(C(C)(C)C)cs1 [Compound 229]")
61
>>> quantitative_readout("COc1cc(C(=O)Nc2cc(C(=O)N3CCC(c4ccc(-c5cnn(C)c5)cc4)CC3)ccc2C)cc(Cl)n1 [Compound 103]")
95
>>> quantitative_readout("Cc1ccc(C(=O)N2CCC(c3ccc(-c4cnn(C)c4)cc3)CC2)cc1NC(=O)c1ccc2c(c1)OCO2 [Compound 133]")
96

Pending compound:
Data request: Please list inhibition at 10 µM recorded for the compound Cc1ccc(C(=O)N2CCC(c3ccc(-c4cnn(C5CCC5)c4)cc3)CC2)cc1NC(=O)c1ccc(NC(C)C)nc1 [Compound 248]
Data returned: 108
